System: Escherichia coli TOP10
experiment-notes: shrunken log2 fold change of peptide-encoding DNA abundance (4.5 h post-induction vs induction); higher = less antimicrobial activity (less host growth inhibition)
condition-description: time post-induction: 4.5 h; library: site-saturation at positions 5, 18, 19, 20
Below, each entry is listed with its recorded shrunken log2 fold change.
recorded-endpoint: shrunken log2 fold change

>>> observed_result("RRIRWRPPRLPRPRPRPLMNPRP")
-0.0906
>>> observed_result("RRIRGRPPRLPRPRPRPHEAPRP")
-0.000398
>>> observed_result("RRIRSRPPRLPRPRPRPSVFPRP")
-0.23
>>> observed_result("RRIRGRPPRLPRPRPRPQMFPRP")
0.612
>>> observed_result("RRIRWRPPRLPRPRPRPICIPRP")
-0.191
>>> observed_result("RRIRKRPPRLPRPRPRPTITPRP")
-0.1
>>> observed_result("RRIRYRPPRLPRPRPRPSRYPRP")
-0.122
>>> observed_result("RRIRDRPPRLPRPRPRPYCHPRP")
-0.121
>>> observed_result("RRIRWRPPRLPRPRPRPRIEPRP")
0.186
>>> observed_result("RRIRHRPPRLPRPRPRPWTHPRP")
-0.00208
>>> observed_result("RRIRDRPPRLPRPRPRPSDLPRP")
0.0645
>>> observed_result("RRIRNRPPRLPRPRPRPEDAPRP")
-0.00133
>>> observed_result("RRIRPRPPRLPRPRPRPLDFPRP")
-0.116
>>> observed_result("RRIRLRPPRLPRPRPRPATYPRP")
-0.212
>>> observed_result("RRIRTRPPRLPRPRPRPVYYPRP")
-1.24
>>> observed_result("RRIRIRPPRLPRPRPRPQITPRP")
-1.22
>>> observed_result("RRIRMRPPRLPRPRPRPFGPPRP")
-0.159
>>> observed_result("RRIRARPPRLPRPRPRPSAGPRP")
0.65
>>> observed_result("RRIRKRPPRLPRPRPRPRSLPRP")
-0.00364
>>> observed_result("RRIRGRPPRLPRPRPRPPRLPRP")
0.702
>>> observed_result("RRIRYRPPRLPRPRPRPKVKPRP")
-0.233
>>> observed_result("RRIRPRPPRLPRPRPRPCECPRP")
-0.014
>>> observed_result("RRIRRRPPRLPRPRPRPKRNPRP")
0.525
>>> observed_result("RRIRIRPPRLPRPRPRPCEPPRP")
-0.28
>>> observed_result("RRIRWRPPRLPRPRPRPTQQPRP")
-0.0891
>>> observed_result("RRIRSRPPRLPRPRPRPCQEPRP")
-0.0101
>>> observed_result("RRIRARPPRLPRPRPRPCCKPRP")
-0.12
>>> observed_result("RRIRHRPPRLPRPRPRPATCPRP")
-0.196
>>> observed_result("RRIRCRPPRLPRPRPRPWKVPRP")
0.101
>>> observed_result("RRIRVRPPRLPRPRPRPVDEPRP")
0.144
>>> observed_result("RRIRMRPPRLPRPRPRPCLDPRP")
-0.273
>>> observed_result("RRIRARPPRLPRPRPRPEYGPRP")
0.11

---

Below, each entry is listed with its recorded shrunken log2 fold change.
Tested on: Escherichia coli TOP10
experiment-notes: shrunken log2 fold change of peptide-encoding DNA abundance (4.5 h post-induction vs induction); higher = less antimicrobial activity (less host growth inhibition)
condition-description: time post-induction: 4.5 h; library: site-saturation at positions 5, 18, 19, 20
recorded-endpoint: shrunken log2 fold change

>>> observed_result("RRIRKRPPRLPRPRPRPTVNPRP")
0.402
>>> observed_result("RRIRYRPPRLPRPRPRPRTTPRP")
-0.011
>>> observed_result("RRIRSRPPRLPRPRPRPIHRPRP")
-0.172
>>> observed_result("RRIRHRPPRLPRPRPRPEQYPRP")
-0.224
>>> observed_result("RRIRDRPPRLPRPRPRPMTVPRP")
0.047
>>> observed_result("RRIRYRPPRLPRPRPRPVPVPRP")
-0.24
>>> observed_result("RRIRARPPRLPRPRPRPNYRPRP")
0.0835
>>> observed_result("RRIRHRPPRLPRPRPRPAWAPRP")
0.48

---

Test system: Escherichia coli TOP10
experiment-notes: shrunken log2 fold change of peptide-encoding DNA abundance (4.5 h post-induction vs induction); higher = less antimicrobial activity (less host growth inhibition)
condition-description: time post-induction: 4.5 h; library: site-saturation at positions 5, 18, 19, 20
Lab note: compare shrunken log2 fold change against 0.07. Equal or greater, write fulfilled. Smaller, write not fulfilled.

>>> group_label("RRIRPRPPRLPRPRPRPYDMPRP")
"not fulfilled"
>>> group_label("RRIRSRPPRLPRPRPRPYMMPRP")
"not fulfilled"
>>> group_label("RRIRQRPPRLPRPRPRPWDSPRP")
"not fulfilled"
>>> group_label("RRIRGRPPRLPRPRPRPNAAPRP")
"fulfilled"
>>> group_label("RRIRMRPPRLPRPRPRPKMCPRP")
"not fulfilled"
>>> group_label("RRIRERPPRLPRPRPRPETQPRP")
"fulfilled"
>>> group_label("RRIRKRPPRLPRPRPRPGGQPRP")
"fulfilled"
>>> group_label("RRIRFRPPRLPRPRPRPHPNPRP")
"not fulfilled"
>>> group_label("RRIRGRPPRLPRPRPRPFCGPRP")
"fulfilled"
>>> group_label("RRIRQRPPRLPRPRPRPLEPPRP")
"not fulfilled"
>>> group_label("RRIRHRPPRLPRPRPRPDSRPRP")
"not fulfilled"
>>> group_label("RRIRNRPPRLPRPRPRPIRKPRP")
"not fulfilled"
>>> group_label("RRIRSRPPRLPRPRPRPPSPPRP")
"fulfilled"
>>> group_label("RRIRARPPRLPRPRPRPLVNPRP")
"not fulfilled"

---

Test system: Escherichia coli TOP10;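 further: peptides expressed intracellularly from a pBAD plasmid library in pooled LB shake-flask culture, induced with 0.3% L-arabinose, DNA abundance read by NGS, three biological replicates, DESeq2 with apeglm shrinkage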
experiment-notes: shrunken log2 fold change of peptide-encoding DNA abundance (4.5 h post-induction vs induction); higher = less antimicrobial activity (less host growth inhibition)
condition-description: time post-induction: 4.5 h; library: site-saturation at positions 5, 18, 19, 20
Lab note: compare shrunken log2 fold change against 0.09. Equal or greater, write True. Smaller, write False.

>>> group_label("RRIRARPPRLPRPRPRPINDPRP")
"False"
>>> group_label("RRIRWRPPRLPRPRPRPKWFPRP")
"True"
>>> group_label("RRIRARPPRLPRPRPRPISYPRP")
"False"
>>> group_label("RRIRERPPRLPRPRPRPEQEPRP")
"False"
>>> group_label("RRIRGRPPRLPRPRPRPHWRPRP")
"True"
>>> group_label("RRIRLRPPRLPRPRPRPLVSPRP")
"False"
>>> group_label("RRIRWRPPRLPRPRPRPQRTPRP")
"False"
>>> group_label("RRIRVRPPRLPRPRPRPQKHPRP")
"False"
>>> group_label("RRIRWRPPRLPRPRPRPCWPPRP")
"True"
>>> group_label("RRIRGRPPRLPRPRPRPWEMPRP")
"True"
>>> group_label("RRIRSRPPRLPRPRPRPQNGPRP")
"False"
>>> group_label("RRIRKRPPRLPRPRPRPVLQPRP")
"False"
>>> group_label("RRIRNRPPRLPRPRPRPRFDPRP")
"False"
>>> group_label("RRIRYRPPRLPRPRPRPNFYPRP")
"False"
>>> group_label("RRIRWRPPRLPRPRPRPCVGPRP")
"True"
>>> group_label("RRIRFRPPRLPRPRPRPLSTPRP")
"False"
>>> group_label("RRIRLRPPRLPRPRPRPAEYPRP")
"False"
>>> group_label("RRIRLRPPRLPRPRPRPYWGPRP")
"False"
>>> group_label("RRIRSRPPRLPRPRPRPLYCPRP")
"False"
>>> group_label("RRIRTRPPRLPRPRPRPPMMPRP")
"False"
>>> group_label("RRIRIRPPRLPRPRPRPKTIPRP")
"False"
>>> group_label("RRIRVRPPRLPRPRPRPRINPRP")
"False"
>>> group_label("RRIRHRPPRLPRPRPRPPNFPRP")
"False"
>>> group_label("RRIRDRPPRLPRPRPRPATVPRP")
"False"
>>> group_label("RRIRHRPPRLPRPRPRPVQPPRP")
"False"
>>> group_label("RRIRARPPRLPRPRPRPIDYPRP")
"False"
>>> group_label("RRIRNRPPRLPRPRPRPIVDPRP")
"False"
>>> group_label("RRIRHRPPRLPRPRPRPDQKPRP")
"False"
>>> group_label("RRIRGRPPRLPRPRPRPEGFPRP")
"True"
>>> group_label("RRIRSRPPRLPRPRPRPKVEPRP")
"True"
>>> group_label("RRIRARPPRLPRPRPRPNFQPRP")
"False"
>>> group_label("RRIRCRPPRLPRPRPRPVATPRP")
"True"
>>> group_label("RRIRMRPPRLPRPRPRPPDNPRP")
"True"
>>> group_label("RRIRERPPRLPRPRPRPEQPPRP")
"False"
>>> group_label("RRIRDRPPRLPRPRPRPQADPRP")
"True"
>>> group_label("RRIRVRPPRLPRPRPRPNNTPRP")
"False"
>>> group_label("RRIRMRPPRLPRPRPRPRNWPRP")
"True"
>>> group_label("RRIRIRPPRLPRPRPRPWHSPRP")
"False"
>>> group_label("RRIRVRPPRLPRPRPRPFDKPRP")
"False"
>>> group_label("RRIRDRPPRLPRPRPRPDTSPRP")
"False"
>>> group_label("RRIRVRPPRLPRPRPRPHKGPRP")
"False"
>>> group_label("RRIRKRPPRLPRPRPRPAHNPRP")
"True"
>>> group_label("RRIRTRPPRLPRPRPRPALFPRP")
"False"
>>> group_label("RRIRNRPPRLPRPRPRPHDDPRP")
"False"
>>> group_label("RRIRGRPPRLPRPRPRPVENPRP")
"True"
>>> group_label("RRIRFRPPRLPRPRPRPKRVPRP")
"True"
>>> group_label("RRIRMRPPRLPRPRPRPLHVPRP")
"False"
>>> group_label("RRIRPRPPRLPRPRPRPRHRPRP")
"True"
>>> group_label("RRIRTRPPRLPRPRPRPRLWPRP")
"True"
>>> group_label("RRIRYRPPRLPRPRPRPWRTPRP")
"False"
>>> group_label("RRIRARPPRLPRPRPRPVKHPRP")
"False"
>>> group_label("RRIRCRPPRLPRPRPRPDLFPRP")
"True"
>>> group_label("RRIRYRPPRLPRPRPRPLNAPRP")
"False"
>>> group_label("RRIRQRPPRLPRPRPRPNFLPRP")
"False"
>>> group_label("RRIRHRPPRLPRPRPRPRTEPRP")
"True"
>>> group_label("RRIRPRPPRLPRPRPRPEDCPRP")
"False"
>>> group_label("RRIRGRPPRLPRPRPRPGGAPRP")
"True"
>>> group_label("RRIRIRPPRLPRPRPRPQVTPRP")
"False"
>>> group_label("RRIRGRPPRLPRPRPRPMRPPRP")
"True"
>>> group_label("RRIRERPPRLPRPRPRPKTNPRP")
"False"
>>> group_label("RRIRERPPRLPRPRPRPDWYPRP")
"False"
>>> group_label("RRIRMRPPRLPRPRPRPCMHPRP")
"True"
>>> group_label("RRIRWRPPRLPRPRPRPDPLPRP")
"True"
